Recorded values, source the supplement of paper PMC13207355.

Test system: E34 (patient-derived glioblastoma stem cells of proneural subtype);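 note: cell Painting imaging in 384-well plates, CellProfiler features reduced to at least 20 principal components, Euclidean distance versus same-plate DMSO vehicle wells (0.1% v/v), median over six images per well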
test: phenotypic distance (Euclidean, principal components) from DMSO controls (arbitrary units); higher = stronger morphological change
cond: 111.1 nM; exposure time: 72 h
Reported phenotypic distance values follow for various compounds
Just the number, please, no unit attached.

These solved cases illustrate the format of a correct answer.
>>> df
                                   compound              measure  number
0  CC(C)C[C@H](NC(=O)[C@H](Cc1ccccc1)C[C@@H](O)[C@H](Cc1ccccc1)NC(=O)OC(C)(C)C)C(=O)N[C@@H](Cc1ccccc1)C(N)=O [L-685,458]  phenotypic distance    0.75
1   Cn1nnc2c(C(N)=O)ncn2c1=O [Temozolomide]  phenotypic distance   0.388
2       Oc1ccc(OCc2ccccc2)cc1 [Monobenzone]  phenotypic distance   0.661

We next turn to a different compound, shown below.
(Q) If you can, please state the reported phenotypic distance value of CCC(C)(C)C(=O)O[C@H]1C[C@@H](C)C=C2C=C[C@H](C)[C@H](CC[C@@H]3C[C@@H](O)CC(=O)O3)[C@H]21 [Simvastatin] .
(A) 0.945
